Listing of entries alongside the reported LD50.
assay: Toxicity in ip dosed Mus musculus albino Swiss-Webster (mouse) […]; format: organism-based; conditions: in vivo

- test_smiles: "CC(C)[C@@]1(O)[C@@H](OC(=O)c2ccc[nH]2)[C@@]2(O)[C@@]3(C)C[C@]4(O)O[C@@]5([C@H](O)[C@@H](C)CC[C@]35O)[C@@]2(O)[C@@]14C"
  LD50 / mg/kg: 0.49
- test_smiles: "CC(C)[C@@]1(O)[C@@H](OC(=O)c2ccc[nH]2)[C@]2(O)O[C@H]3[C@]45O[C@@](O)(C[C@@]2(C)[C@@]4(O)CC[C@H](C)[C@H]5O)[C@]31C"
  LD50 / mg/kg: 0.15

---

molecular target: Ryanodine receptor 1 (Oryctolagus cuniculus) (UniProt P11716); experiment: Displacement of [3H]ryanodine from Ca2+-ryanodine receptor in Oryctolagus cuniculus (rabbit) skeletal muscle sarcoplasmic reticulum after 1 hr by competitive inhibition assay in presence of ATP relative to ryanodine
Sequence (P11716 whole entry): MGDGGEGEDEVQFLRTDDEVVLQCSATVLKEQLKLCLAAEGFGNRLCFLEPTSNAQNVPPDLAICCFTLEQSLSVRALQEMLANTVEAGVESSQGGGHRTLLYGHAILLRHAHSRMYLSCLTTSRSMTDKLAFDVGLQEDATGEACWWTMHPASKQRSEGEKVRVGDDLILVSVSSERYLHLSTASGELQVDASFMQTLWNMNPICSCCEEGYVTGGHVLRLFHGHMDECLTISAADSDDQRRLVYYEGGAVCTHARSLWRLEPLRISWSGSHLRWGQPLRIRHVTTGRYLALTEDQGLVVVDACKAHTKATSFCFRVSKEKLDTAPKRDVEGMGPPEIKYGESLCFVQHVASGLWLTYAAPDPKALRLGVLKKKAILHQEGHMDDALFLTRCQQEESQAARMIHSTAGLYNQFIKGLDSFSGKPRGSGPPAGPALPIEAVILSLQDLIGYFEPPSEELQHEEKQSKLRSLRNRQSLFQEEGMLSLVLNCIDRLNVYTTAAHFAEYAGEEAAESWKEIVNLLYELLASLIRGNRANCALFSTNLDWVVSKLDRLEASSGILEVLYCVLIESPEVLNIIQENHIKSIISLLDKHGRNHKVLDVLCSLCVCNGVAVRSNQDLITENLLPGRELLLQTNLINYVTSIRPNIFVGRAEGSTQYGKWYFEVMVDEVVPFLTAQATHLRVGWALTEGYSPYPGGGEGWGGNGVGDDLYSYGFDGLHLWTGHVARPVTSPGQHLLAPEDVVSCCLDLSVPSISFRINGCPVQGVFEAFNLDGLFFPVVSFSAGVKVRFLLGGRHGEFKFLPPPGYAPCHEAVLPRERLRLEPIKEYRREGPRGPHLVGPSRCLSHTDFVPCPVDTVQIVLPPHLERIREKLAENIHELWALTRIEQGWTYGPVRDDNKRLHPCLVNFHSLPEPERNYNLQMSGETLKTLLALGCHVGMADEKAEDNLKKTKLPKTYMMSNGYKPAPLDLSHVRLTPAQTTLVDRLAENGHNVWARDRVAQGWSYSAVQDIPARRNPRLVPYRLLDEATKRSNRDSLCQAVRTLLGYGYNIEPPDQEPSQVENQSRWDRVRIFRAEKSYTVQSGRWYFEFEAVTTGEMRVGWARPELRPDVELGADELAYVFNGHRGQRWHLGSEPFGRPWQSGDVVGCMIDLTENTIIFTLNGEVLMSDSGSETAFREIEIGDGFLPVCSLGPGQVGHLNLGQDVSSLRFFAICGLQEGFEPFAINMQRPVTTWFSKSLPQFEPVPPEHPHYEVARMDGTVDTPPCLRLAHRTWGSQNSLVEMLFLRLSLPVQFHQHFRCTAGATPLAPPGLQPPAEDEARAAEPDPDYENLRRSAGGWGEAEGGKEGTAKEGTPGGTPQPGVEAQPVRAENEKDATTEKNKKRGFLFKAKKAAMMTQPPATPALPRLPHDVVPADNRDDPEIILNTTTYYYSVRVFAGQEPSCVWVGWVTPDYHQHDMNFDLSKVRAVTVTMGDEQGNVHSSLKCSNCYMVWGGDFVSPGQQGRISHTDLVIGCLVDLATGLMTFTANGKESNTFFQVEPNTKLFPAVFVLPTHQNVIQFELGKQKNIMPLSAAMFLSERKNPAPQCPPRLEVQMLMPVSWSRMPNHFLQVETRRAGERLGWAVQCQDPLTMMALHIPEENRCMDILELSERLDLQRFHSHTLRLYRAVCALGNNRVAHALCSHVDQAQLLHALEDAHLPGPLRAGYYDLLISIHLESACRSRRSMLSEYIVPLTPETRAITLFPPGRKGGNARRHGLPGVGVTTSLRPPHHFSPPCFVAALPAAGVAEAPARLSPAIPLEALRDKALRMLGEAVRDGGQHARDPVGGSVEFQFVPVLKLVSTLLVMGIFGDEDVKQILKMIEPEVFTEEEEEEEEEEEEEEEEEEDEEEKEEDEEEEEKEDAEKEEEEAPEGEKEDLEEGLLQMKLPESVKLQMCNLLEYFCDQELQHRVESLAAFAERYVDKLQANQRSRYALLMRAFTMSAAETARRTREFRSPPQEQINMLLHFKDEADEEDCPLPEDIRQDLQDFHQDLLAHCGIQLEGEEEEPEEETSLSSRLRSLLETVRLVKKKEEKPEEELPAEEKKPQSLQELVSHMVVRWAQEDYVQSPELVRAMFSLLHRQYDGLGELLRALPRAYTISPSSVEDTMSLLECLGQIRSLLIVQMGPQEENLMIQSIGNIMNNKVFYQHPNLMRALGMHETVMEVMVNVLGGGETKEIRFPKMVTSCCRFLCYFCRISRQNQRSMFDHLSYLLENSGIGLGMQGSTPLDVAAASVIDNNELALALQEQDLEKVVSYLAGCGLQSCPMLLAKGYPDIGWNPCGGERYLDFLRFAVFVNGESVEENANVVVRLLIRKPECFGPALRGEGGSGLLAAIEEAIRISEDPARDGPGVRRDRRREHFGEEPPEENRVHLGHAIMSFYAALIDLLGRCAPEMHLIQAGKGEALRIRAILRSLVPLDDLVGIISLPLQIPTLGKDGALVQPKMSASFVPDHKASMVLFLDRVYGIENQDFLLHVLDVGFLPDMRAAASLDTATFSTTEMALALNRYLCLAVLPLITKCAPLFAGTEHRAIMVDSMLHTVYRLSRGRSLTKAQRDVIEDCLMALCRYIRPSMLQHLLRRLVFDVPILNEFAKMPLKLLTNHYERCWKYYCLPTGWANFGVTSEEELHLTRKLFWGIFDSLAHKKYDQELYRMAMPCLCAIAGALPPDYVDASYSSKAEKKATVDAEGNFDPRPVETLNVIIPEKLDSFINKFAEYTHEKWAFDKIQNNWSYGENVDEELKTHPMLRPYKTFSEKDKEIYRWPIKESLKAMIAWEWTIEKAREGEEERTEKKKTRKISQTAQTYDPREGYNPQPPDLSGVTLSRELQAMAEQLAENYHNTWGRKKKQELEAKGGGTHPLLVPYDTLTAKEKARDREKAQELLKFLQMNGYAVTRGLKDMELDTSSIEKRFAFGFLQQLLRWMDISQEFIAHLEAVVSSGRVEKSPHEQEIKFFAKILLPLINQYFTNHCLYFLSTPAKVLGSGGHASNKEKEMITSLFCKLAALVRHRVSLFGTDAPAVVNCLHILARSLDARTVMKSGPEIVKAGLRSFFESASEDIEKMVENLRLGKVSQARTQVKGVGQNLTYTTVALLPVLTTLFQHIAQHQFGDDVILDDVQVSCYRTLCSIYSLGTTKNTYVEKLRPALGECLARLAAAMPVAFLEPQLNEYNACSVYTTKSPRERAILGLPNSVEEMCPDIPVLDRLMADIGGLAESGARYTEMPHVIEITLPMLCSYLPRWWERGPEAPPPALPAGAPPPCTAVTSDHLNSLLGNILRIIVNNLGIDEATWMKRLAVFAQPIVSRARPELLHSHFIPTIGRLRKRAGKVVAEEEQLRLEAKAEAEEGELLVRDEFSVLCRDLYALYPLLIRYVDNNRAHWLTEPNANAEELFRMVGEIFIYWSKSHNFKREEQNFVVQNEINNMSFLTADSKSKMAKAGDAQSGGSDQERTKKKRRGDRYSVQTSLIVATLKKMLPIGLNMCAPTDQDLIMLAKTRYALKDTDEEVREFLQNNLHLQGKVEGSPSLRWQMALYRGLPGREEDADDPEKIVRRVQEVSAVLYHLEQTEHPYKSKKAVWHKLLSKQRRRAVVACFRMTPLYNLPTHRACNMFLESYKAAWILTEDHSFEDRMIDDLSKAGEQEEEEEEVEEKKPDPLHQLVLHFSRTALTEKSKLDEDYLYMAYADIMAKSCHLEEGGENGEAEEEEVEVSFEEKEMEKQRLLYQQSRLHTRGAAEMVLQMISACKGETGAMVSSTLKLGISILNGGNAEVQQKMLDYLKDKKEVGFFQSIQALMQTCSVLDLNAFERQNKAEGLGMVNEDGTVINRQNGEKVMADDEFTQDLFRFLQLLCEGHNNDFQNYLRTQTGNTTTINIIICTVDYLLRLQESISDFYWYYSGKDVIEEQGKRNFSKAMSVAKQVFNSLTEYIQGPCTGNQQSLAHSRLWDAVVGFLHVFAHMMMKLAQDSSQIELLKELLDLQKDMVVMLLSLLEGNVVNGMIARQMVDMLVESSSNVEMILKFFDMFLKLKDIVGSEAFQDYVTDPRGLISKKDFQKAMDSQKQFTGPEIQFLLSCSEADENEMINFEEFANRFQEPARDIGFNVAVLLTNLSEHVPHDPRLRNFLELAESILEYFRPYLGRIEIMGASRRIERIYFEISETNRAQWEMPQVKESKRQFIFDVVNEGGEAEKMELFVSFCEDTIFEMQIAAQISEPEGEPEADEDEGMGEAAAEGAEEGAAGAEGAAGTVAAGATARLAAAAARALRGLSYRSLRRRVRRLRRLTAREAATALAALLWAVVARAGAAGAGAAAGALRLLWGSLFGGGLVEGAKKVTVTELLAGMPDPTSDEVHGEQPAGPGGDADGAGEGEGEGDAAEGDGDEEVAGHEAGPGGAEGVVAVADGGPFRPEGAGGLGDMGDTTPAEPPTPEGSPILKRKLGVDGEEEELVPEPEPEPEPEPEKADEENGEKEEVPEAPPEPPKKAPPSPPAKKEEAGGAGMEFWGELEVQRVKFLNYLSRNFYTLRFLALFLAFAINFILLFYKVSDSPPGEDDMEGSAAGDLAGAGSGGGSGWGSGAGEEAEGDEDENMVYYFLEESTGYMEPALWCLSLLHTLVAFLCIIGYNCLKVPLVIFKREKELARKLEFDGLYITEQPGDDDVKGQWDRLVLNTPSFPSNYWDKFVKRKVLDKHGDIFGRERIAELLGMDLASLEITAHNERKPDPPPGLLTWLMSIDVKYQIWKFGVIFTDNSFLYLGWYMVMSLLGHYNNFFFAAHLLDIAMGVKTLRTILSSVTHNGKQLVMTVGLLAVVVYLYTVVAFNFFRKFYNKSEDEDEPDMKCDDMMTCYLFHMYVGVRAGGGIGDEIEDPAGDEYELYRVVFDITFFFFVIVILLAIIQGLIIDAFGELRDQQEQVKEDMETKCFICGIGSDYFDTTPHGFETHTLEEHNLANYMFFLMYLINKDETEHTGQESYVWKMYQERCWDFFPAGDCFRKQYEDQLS

- compound: "CC(C)[C@@]1(O)[C@@H](OC(=O)c2ccc[nH]2)[C@]2(O)O[C@H]3[C@]45O[C@@](O)(C[C@@]2(C)[C@@]4(O)CC[C@H](C)[C@H]5O)[C@]31C"
  Ratio: 64
- compound: "C=C1CC[C@@]2(O)[C@]3(O[C@@]4(O)C[C@]2(C)C(=O)[C@H](OC(=O)c2ccc[nH]2)[C@](O)(C(C)C)[C@@]4(C)C3=O)[C@@H]1O [4,12-SECO-4,12-DIOXODEHYDRORYANODIN]"
  Ratio: 0.97
- compound: "C=C1CC[C@]2(O)[C@]3(C)C[C@]4(O)O[C@@]2([C@@H]1O)[C@]1(O)O[C@@]3(NNC(=O)c2ccccc2)[C@H](OC(=O)c2ccc[nH]2)[C@](O)(C(C)C)[C@@]14C"
  Ratio: 6.5
- compound: "C=C1CC[C@]2(O)[C@]3(C)C[C@]4(O)O[C@@]2([C@@H]1O)[C@]1(O)[C@@]3(O)[C@H](OC(=O)c2ccc[nH]2)[C@](O)(C(C)C)[C@@]14C [DEHYDRORYANODINE]"
  Ratio: 112
- compound: "C=C1CC[C@]2(O)[C@]3(C)C[C@]4(O)O[C@@]2([C@@H]1O)[C@]1(O)O[C@@]3(NNc2ccccc2)[C@H](OC(=O)c2ccc[nH]2)[C@](O)(C(C)C)[C@@]14C"
  Ratio: 6.1

---

Listing of entries alongside the reported Ratio.
biological target: UniProtKB P11716; test: Displacement of [3H]ryanodine from Ca2+-ryanodine receptor in Oryctolagus cuniculus (rabbit) skeletal muscle sarcoplasmic reticulum after 1 hr by competitive inhibition assay in presence of ATP relative to ryanodine

- test_smiles: "CON[C@@]12O[C@@]3(O)[C@]45O[C@@](O)(C[C@@]1(C)[C@@]4(O)CC[C@H](C)[C@H]5O)[C@@]3(C)[C@@](O)(C(C)C)[C@H]2OC(=O)c1ccc[nH]1"
  Ratio: 23
- test_smiles: "CON[C@@]12O[C@H]3[C@]45O[C@@](O)(C[C@@]1(C)[C@@]4(O)CC[C@H](C)[C@H]5O)[C@@]3(C)[C@@](O)(C(C)C)[C@H]2OC(=O)c1ccc[nH]1"
  Ratio: 34
- test_smiles: "CC(C)[C@@]1(O)[C@@H](OC(=O)c2ccc[nH]2)[C@]2(NOCc3ccccc3)O[C@@]3(O)[C@]45O[C@@](O)(C[C@@]2(C)[C@@]4(O)CC[C@H](C)[C@H]5O)[C@]31C"
  Ratio: 21
- test_smiles: "CC(C)[C@@]1(O)[C@@H](OC(=O)c2ccc[nH]2)[C@@H]2O[C@@]3(O)[C@]45O[C@@](O)(C[C@@]2(C)[C@@]4(O)CC[C@H](C)[C@H]5O)[C@]31C"
  Ratio: 19

---

target: Ryanodine receptor 1 (Oryctolagus cuniculus) (UniProt P11716); test: Displacement of [3H]ryanodine from Ca2+-ryanodine receptor in Oryctolagus cuniculus (rabbit) skeletal muscle sarcoplasmic reticulum after 1 hr by competitive inhibition assay in presence of ATP relative to ryanodine
Listing of entries alongside the reported Ratio.

- test_smiles: "CO/N=C1/[C@H](OC(=O)c2ccc[nH]2)[C@](O)(C(C)C)[C@@]2(C)C(=O)[C@]34O[C@@]2(O)C[C@@]1(C)[C@@]3(O)CC[C@H](C)[C@H]4O"
  Ratio: 0.86
- test_smiles: "C=C1CC[C@]2(O)[C@]3(C)C[C@]4(O)O[C@@]2([C@@H]1O)[C@]1(O)O[C@@]3(NN)[C@H](OC(=O)c2ccc[nH]2)[C@](O)(C(C)C)[C@@]14C"
  Ratio: 14
- test_smiles: "C=C1CC[C@]2(O)[C@]3(C)C[C@]4(O)O[C@@]2([C@@H]1O)[C@]1(NNC(N)=O)O[C@@]3(O)[C@H](OC(=O)c2ccc[nH]2)[C@](O)(C(C)C)[C@@]14C"
  Ratio: 4.4

---

biological target: Ryanodine receptor 1 (Oryctolagus cuniculus) (UniProt P11716); assay: Displacement of [3H]ryanodine from Ca2+-ryanodine receptor in Oryctolagus cuniculus (rabbit) skeletal muscle sarcoplasmic reticulum after 2 hr by competitive inhibition assay relative to ryanodine
Listing of entries alongside the reported Ratio.
observation_type: Ratio

- test_smiles: "CON[C@@]12O[C@H]3[C@]45O[C@@](O)(C[C@@]1(C)[C@@]4(O)CC[C@H](C)[C@H]5O)[C@@]3(C)[C@@](O)(C(C)C)[C@H]2OC(=O)c1ccc[nH]1"
  target_system: "Ryanodine receptor 1 (Oryctolagus cuniculus) (UniProt P11716)"
  observation_type: "Ratio"
  numeric_value: 20
- test_smiles: "CC(C)[C@@]1(O)[C@@H](OC(=O)c2ccc[nH]2)[C@@H]2O[C@@]3(O)[C@]45O[C@@](O)(C[C@@]2(C)[C@@]4(O)CC[C@H](C)[C@H]5O)[C@]31C"
  target_system: "Ryanodine receptor 1 (Oryctolagus cuniculus) (UniProt P11716)"
  observation_type: "Ratio"
  numeric_value: 28
- test_smiles: "CC(C)[C@@]1(O)[C@@H](OC(=O)c2ccc[nH]2)[C@]2(NO)O[C@@]3(O)[C@]45O[C@@](O)(C[C@@]2(C)[C@@]4(O)CC[C@H](C)[C@H]5O)[C@]31C"
  target_system: "Ryanodine receptor 1 (Oryctolagus cuniculus) (UniProt P11716)"
  observation_type: "Ratio"
  numeric_value: 14

---

molecular target: Ryanodine receptor 1 (Oryctolagus cuniculus) (UniProt P11716); assay: Displacement of [3H]ryanodine from Ca2+-ryanodine receptor in Oryctolagus cuniculus (rabbit) skeletal muscle sarcoplasmic reticulum after 2 hr by competitive inhibition assay relative to ryanodine
So basically: Ratio at 20 or higher? That is Fulfilled. Lower than 20? That is Not fulfilled.

- compound: "C=C1CC[C@]2(O)[C@]3(C)C[C@]4(O)O[C@@]2([C@@H]1O)[C@]1(O)[C@@]3(O)[C@H](OC(=O)c2ccc[nH]2)[C@](O)(C(C)C)[C@@]14C [DEHYDRORYANODINE]"
  group_label: "Fulfilled"
- compound: "CC(C)[C@@]1(O)[C@@H](OC(=O)c2ccc[nH]2)[C@]2(O)O[C@@]3(NO)[C@]45O[C@@](O)(C[C@@]2(C)[C@@]4(O)CC[C@H](C)[C@H]5O)[C@]31C"
  group_label: "Not fulfilled"
- compound: "CO/N=C1/[C@H](OC(=O)c2ccc[nH]2)[C@](O)(C(C)C)[C@@]2(C)C(=O)[C@]34O[C@@]2(O)C[C@@]1(C)[C@@]3(O)CC[C@H](C)[C@H]4O"
  group_label: "Not fulfilled"
- compound: "CON[C@@]12O[C@@]3(O)[C@]45O[C@@](O)(C[C@@]1(C)[C@@]4(O)CC[C@H](C)[C@H]5O)[C@@]3(C)[C@@](O)(C(C)C)[C@H]2OC(=O)c1ccc[nH]1"
  group_label: "Fulfilled"
- compound: "CC(C)[C@@]1(O)[C@@H](OC(=O)c2ccc[nH]2)[C@]2(O)O[C@H]3[C@]45O[C@@](O)(C[C@@]2(C)[C@@]4(O)CC[C@H](C)[C@H]5O)[C@]31C"
  group_label: "Fulfilled"
